target: BoNT/A LC1-429 (Clostridium botulinum); test: biochemical; conditions: BoNT/A Ki (nM)
Ki less than 10 nM is MET; Ki greater than or equal to 10 nM is NOT MET.

INSERT INTO results (chemsmiles, systemname, cat) VALUES
  ('CCO[C@H](CC(=O)NO)[C@H](Cc1ccc(Cl)cc1)c1ccc(Cl)cc1', 'BoNT/A LC1-429 (Clostridium botulinum)', 'MET'),
  ('CCO[C@H](CC(=O)NO)[C@H](Cc1ccc(Cl)cc1)c1ccccc1', 'BoNT/A LC1-429 (Clostridium botulinum)', 'NOT MET'),
  ('CC(C)(C)OC(=O)NCCCO[C@H](CC(=O)NO)[C@H](Cc1ccc(Cl)cc1)c1ccc(F)cc1F', 'BoNT/A LC1-429 (Clostridium botulinum)', 'NOT MET'),
  ('CO[C@H](CC(=O)NO)[C@H](Cc1ccc(Cl)cc1)c1ccc(Cl)cc1', 'BoNT/A LC1-429 (Clostridium botulinum)', 'MET'),
  ('CCO[C@H](CC(=O)NO)[C@H](Cc1ccc(Cl)cc1)c1ccc(N2CCNCC2)cc1', 'BoNT/A LC1-429 (Clostridium botulinum)', 'NOT MET'),
  ('COCCO[C@H](CC(=O)NO)[C@H](Cc1ccc(Cl)cc1)c1ccc(F)cc1F', 'BoNT/A LC1-429 (Clostridium botulinum)', 'NOT MET'),
  ('CCO[C@H](CC(=O)NO)[C@H](Cc1ccc(Cl)cc1Cl)c1ccc(Br)cc1', 'BoNT/A LC1-429 (Clostridium botulinum)', 'MET'),
  ('CO[C@H](CC(=O)NO)[C@H](Cc1ccc(Cl)cc1)c1ccc(CO)cc1', 'BoNT/A LC1-429 (Clostridium botulinum)', 'MET');

* * *

target: BoNT/A LC1-429 (Clostridium botulinum, UniProt P0DPI1); assay: biochemical; conditions: BoNT/A Ki (nM)
Sequence (P0DPI1 1-429, added parts left off): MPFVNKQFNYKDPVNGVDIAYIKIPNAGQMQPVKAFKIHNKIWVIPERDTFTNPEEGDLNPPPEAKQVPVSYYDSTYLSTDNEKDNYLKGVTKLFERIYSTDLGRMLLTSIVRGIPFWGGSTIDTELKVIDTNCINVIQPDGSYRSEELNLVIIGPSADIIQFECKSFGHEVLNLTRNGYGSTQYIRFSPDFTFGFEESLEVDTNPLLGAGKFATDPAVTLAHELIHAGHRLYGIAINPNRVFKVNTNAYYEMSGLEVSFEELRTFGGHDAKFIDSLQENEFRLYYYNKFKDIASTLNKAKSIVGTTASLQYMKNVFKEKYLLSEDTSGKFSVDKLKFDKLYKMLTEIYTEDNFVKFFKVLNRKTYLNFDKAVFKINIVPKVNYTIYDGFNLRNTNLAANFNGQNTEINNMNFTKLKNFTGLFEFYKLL
Counter-ions that a name gives are not always drawn.
// returns Condition not met unless Ki is strictly below 6 nM, in which case Condition met

INSERT INTO results (molecule, systemname, cat) VALUES
  ('O=C(C[C@@H](OCc1ccccc1)[C@H](Cc1ccc(Cl)cc1)c1ccc(F)cc1F)NO [Example 6-13]', 'BoNT/A LC1-429 (Clostridium botulinum, UniProt P0DPI1)', 'Condition not met'),
  ('CCO[C@H](CC(=O)NO)[C@H](Cc1ccc(Cl)cc1)c1ccc(-n2ccnc2)cc1 [Example 3-29]', 'BoNT/A LC1-429 (Clostridium botulinum, UniProt P0DPI1)', 'Condition met'),
  ('CCCCOCc1ccc([C@@H](Cc2ccc(Cl)cc2)[C@@H](CC(=O)NO)OC)cc1 [Example 3-13]', 'BoNT/A LC1-429 (Clostridium botulinum, UniProt P0DPI1)', 'Condition not met'),
  ('CO[C@H](CC(=O)NO)[C@H](Cc1ccc(Cl)cc1C)c1ccc(F)cc1 [Example 6-5, potassium salt]', 'BoNT/A LC1-429 (Clostridium botulinum, UniProt P0DPI1)', 'Condition met'),
  ('CCO[C@H](CC(=O)NO)[C@H](Cc1ccc(Cl)cc1)c1ccc(C(=O)N2CCOCC2)cc1 [Example 4-5]', 'BoNT/A LC1-429 (Clostridium botulinum, UniProt P0DPI1)', 'Condition met'),
  ('CCO[C@H](CC(=O)NO)[C@H](Cc1ccc(Cl)cc1)c1ccc(Cl)c(Br)c1 [Example 6-24]', 'BoNT/A LC1-429 (Clostridium botulinum, UniProt P0DPI1)', 'Condition not met'),
  ('CCO[C@H](CC(=O)NO)[C@H](Cc1ccc(Cl)cc1)c1ccc(CN2CCOCC2)cc1 [Example 3-16]', 'BoNT/A LC1-429 (Clostridium botulinum, UniProt P0DPI1)', 'Condition not met'),
  ('CCO[C@H](CC(=O)NO)[C@H](Cc1ccc(Cl)cc1)c1ccc(C(=O)N2CCCCC2)cc1 [Example 4-3]', 'BoNT/A LC1-429 (Clostridium botulinum, UniProt P0DPI1)', 'Condition met');

* * *

biological target: BoNT/A LC1-429 (Clostridium botulinum, UniProt P0DPI1); assay: biochemical; conditions: BoNT/A Ki (nM)
Structures can show the parent of a compound that is named as a salt.
Entries and their log10 Ki
attributeMeasured: log10 Ki (log10 of the value in nM)

INSERT INTO results (compound, systemname, observedresult) VALUES
  ('O=C(CC[C@H](Cc1ccc(Cl)cc1)c1ccccc1)NO', 'BoNT/A LC1-429 (Clostridium botulinum, UniProt P0DPI1)', 3.43),
  ('CO[C@H](CC(=O)NO)[C@H](Cc1ccc(Cl)cc1C)c1ccc(F)cc1F [Example 6-22, potassium salt]', 'BoNT/A LC1-429 (Clostridium botulinum, UniProt P0DPI1)', 0.83),
  ('CCO[C@H](CC(=O)NO)[C@H](Cc1ccc(Cl)cc1)c1ccc(N2CCOCC2)cc1', 'BoNT/A LC1-429 (Clostridium botulinum, UniProt P0DPI1)', 1.00),
  ('CO[C@H](CC(=O)NO)[C@H](Cc1ccc(Cl)cc1)c1ccc(C(=O)N2CCOCC2)cc1', 'BoNT/A LC1-429 (Clostridium botulinum, UniProt P0DPI1)', 1.06),
  ('CCO[C@H](CC(=O)NO)[C@H](Cc1ccc(Cl)cc1)c1ccc(-c2ccc[nH]2)cc1', 'BoNT/A LC1-429 (Clostridium botulinum, UniProt P0DPI1)', 0.90),
  ('CCO[C@H](CC(=O)NO)[C@H](Cc1ccc(Cl)cc1)c1ccc(C(=O)NO)cc1', 'BoNT/A LC1-429 (Clostridium botulinum, UniProt P0DPI1)', 1.02),
  ('O=C(CC[C@H](Cc1ccc(Cl)cc1)c1ccc(Br)cc1)NO', 'BoNT/A LC1-429 (Clostridium botulinum, UniProt P0DPI1)', 2.96),
  ('CO[C@H](CC(=O)NO)[C@H](Cc1ccc(Cl)cc1)c1ccc(C(=O)N2CCCCC2)cc1', 'BoNT/A LC1-429 (Clostridium botulinum, UniProt P0DPI1)', 0.74),
  ('CO[C@H](CC(=O)NO)[C@H](Cc1ccc(Cl)cc1C)c1ccc(CN2CCOCC2)cc1F', 'BoNT/A LC1-429 (Clostridium botulinum, UniProt P0DPI1)', 1.66),
  ('CCO[C@H](CC(=O)NO)[C@H](Cc1ccc(Cl)cc1)c1ccc(F)cc1 [Example 6-3, potassium salt]', 'BoNT/A LC1-429 (Clostridium botulinum, UniProt P0DPI1)', 0.95),
  ('CO[C@H](CC(=O)NO)[C@H](Cc1ccc(Cl)cc1)c1cc(F)c(F)c(F)c1', 'BoNT/A LC1-429 (Clostridium botulinum, UniProt P0DPI1)', 0.73),
  ('CO[C@H](CC(=O)NO)[C@H](Cc1ccc(Cl)cc1)c1ccc(F)cc1 [Example 6-2, potassium salt]', 'BoNT/A LC1-429 (Clostridium botulinum, UniProt P0DPI1)', 1.11),
  ('CO[C@H](CC(=O)NO)[C@H](Cc1ccc(F)cc1C)c1ccc(Br)cc1', 'BoNT/A LC1-429 (Clostridium botulinum, UniProt P0DPI1)', 2.37),
  ('O=C(O)CCO[C@H](CC(=O)NO)[C@H](Cc1ccc(Cl)cc1)c1ccc(F)cc1F', 'BoNT/A LC1-429 (Clostridium botulinum, UniProt P0DPI1)', 2.56),
  ('CCO[C@H](CC(=O)NO)[C@H](Cc1ccc(Cl)cc1)c1ccc(F)cc1F [Example 6-11]', 'BoNT/A LC1-429 (Clostridium botulinum, UniProt P0DPI1)', 1.01),
  ('CO[C@H](CC(=O)NO)[C@H](Cc1ccc(Cl)cc1)c1ccc(Cl)c(CN2CCCCC2)c1', 'BoNT/A LC1-429 (Clostridium botulinum, UniProt P0DPI1)', 0.57);

* * *

target: BoNT/A LC1-429 (Clostridium botulinum); assay: biochemical
pKi: −log10 of the molar value.
Consider the following molecules and their measured pKi readings.
attributeMeasured: pKi

INSERT INTO measurements (chemsmiles, attributemeasured, observedresult) VALUES
  ('CCO[C@H](CC(=O)NO)[C@H](Cc1cccc(-c2ccncc2)c1)c1ccc(F)cc1', 'pKi', 5.97),
  ('CCO[C@H](CC(=O)NO)[C@H](Cc1ccc(CC)cc1)c1ccc(F)cc1', 'pKi', 7.04),
  ('CCO[C@H](CC(=O)NO)[C@H](Cc1ccc(-c2cncc(C)c2)cc1)c1ccc(F)cc1', 'pKi', 6.80),
  ('CCO[C@H](CC(=O)NO)[C@H](Cc1ccc(-c2cccnc2)cc1)c1ccc(F)cc1', 'pKi', 6.83),
  ('CCO[C@H](CC(=O)NO)[C@H](Cc1cccc(Br)c1)c1ccc(F)cc1', 'pKi', 6.81),
  ('CCO[C@H](CC(=O)NO)[C@H](Cc1ccc(C(=O)NC)cc1)c1ccc(F)cc1', 'pKi', 5.91);
